Test system: PXR:RXRa (NR concentration 270 nM, RXRa partner concentration 90 nM)
Assay: PBM binding z-score (relative to random genomic background probes); higher = stronger binding; sequences stand for … in GC…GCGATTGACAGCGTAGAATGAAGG
ASSAY_ENDPOINT: PBM binding z-score
The response must contain the number and no unit.

Below: 5 sequences and their reported PBM binding z-score.
# SEQUENCE_ENTRY, PBM binding z-score
measured = [
    ("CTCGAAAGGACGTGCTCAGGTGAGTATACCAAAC", -0.345),
    ("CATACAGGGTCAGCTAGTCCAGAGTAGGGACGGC", 2.36),
    ("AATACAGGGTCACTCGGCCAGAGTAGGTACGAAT", 3.49),
    ("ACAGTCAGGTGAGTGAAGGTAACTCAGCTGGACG", -0.47),
    ("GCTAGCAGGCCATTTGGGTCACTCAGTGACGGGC", 0.3),
]

Query for PXR:RXRa (NR concentration 270 nM, RXRa partner concentration 90 nM): what PBM binding z-score does the record show for CTCGAAAGGTCGTGCTCAGGTGAGTAAACCAAAC ?
3.34

Form: Entry = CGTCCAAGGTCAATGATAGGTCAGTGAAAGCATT | System = PXR:RXRa (NR concentration 270 nM, RXRa partner concentration 90 nM) | PBM binding z-score = ____
5.17

Tell me reported PBM binding z-score for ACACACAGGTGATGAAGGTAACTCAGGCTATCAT , tested with PXR:RXRa (NR concentration 270 nM, RXRa partner concentration 90 nM).
-0.0363

Give recorded PBM binding z-score with PXR:RXRa (NR concentration 270 nM, RXRa partner concentration 90 nM) for the following sequence: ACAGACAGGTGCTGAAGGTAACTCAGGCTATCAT
-0.445

Lab note: need PBM binding z-score with PXR:RXRa (NR concentration 270 nM, RXRa partner concentration 90 nM) for entry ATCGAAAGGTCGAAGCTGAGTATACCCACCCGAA , please look it up.
2.27

Find PBM binding z-score (PXR:RXRa (NR concentration 270 nM, RXRa partner concentration 90 nM)) for the entry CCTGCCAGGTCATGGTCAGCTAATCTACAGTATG
2.16

What is its PBM binding z-score for PXR:RXRa (NR concentration 270 nM, RXRa partner concentration 90 nM)? Entry: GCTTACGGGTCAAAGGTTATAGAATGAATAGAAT
6.07
